Protocol Summary: Plasma, brain and lung levels after 7 days oral dosing
Format: in vivo, Sprague Dawley Rats
Condition Context: Sprague Dawley, rat, lung; 10 mg/kg po qd 7 days, 24 hrs after last dosing, Female; read-out: Lung
Readout Label: concentration at 24 h (ng/g)
Field format: number, assumed ng/g, no unit text.

Recorded result, `C=CC(=O)Nc1cc(Nc2nccc(-n3ccc4cccnc43)n2)c(OC)cc1N(C)CCN(C)C` , concentration at 24 h: 1220

---

Protocol Summary: Brain and plasma exposure after 5 hour intravenous infusion
Assay type: in vivo, Sprague Dawley rats
Condition Context: male, Sprague Dawley, rat, plasma, intravenous, 3 mg/kg, 3 mg/kg IV infusion over 5 h, 5 h, mean n=6; Compound 2 as metabolite; read-out: Plasma Concentration
Readout Label: concentration at 5 h (ng/mL)
Field format: number, assumed ng/mL, no unit text.

- C=CC(=O)Nc1cc(Nc2nccc(-n3ccc4cccnc43)n2)c(OC)cc1N(C)CCN(C)C [Compound 1]: 110

Let us move to another entry and its concentration at 5 h.
Recorded result, C=CC(=O)Nc1cc(Nc2nccc(-n3ccc4cccnc43)n2)c(OC)cc1N(C)CCNC [Compound 2] , concentration at 5 h: 18.7

---

Measurement Target: EGFRvIII (Homo sapiens, UniProt P00533, DELINS30-297G)
Sequence (P00533 with tags, fused parts or gaps DELINS30-297G): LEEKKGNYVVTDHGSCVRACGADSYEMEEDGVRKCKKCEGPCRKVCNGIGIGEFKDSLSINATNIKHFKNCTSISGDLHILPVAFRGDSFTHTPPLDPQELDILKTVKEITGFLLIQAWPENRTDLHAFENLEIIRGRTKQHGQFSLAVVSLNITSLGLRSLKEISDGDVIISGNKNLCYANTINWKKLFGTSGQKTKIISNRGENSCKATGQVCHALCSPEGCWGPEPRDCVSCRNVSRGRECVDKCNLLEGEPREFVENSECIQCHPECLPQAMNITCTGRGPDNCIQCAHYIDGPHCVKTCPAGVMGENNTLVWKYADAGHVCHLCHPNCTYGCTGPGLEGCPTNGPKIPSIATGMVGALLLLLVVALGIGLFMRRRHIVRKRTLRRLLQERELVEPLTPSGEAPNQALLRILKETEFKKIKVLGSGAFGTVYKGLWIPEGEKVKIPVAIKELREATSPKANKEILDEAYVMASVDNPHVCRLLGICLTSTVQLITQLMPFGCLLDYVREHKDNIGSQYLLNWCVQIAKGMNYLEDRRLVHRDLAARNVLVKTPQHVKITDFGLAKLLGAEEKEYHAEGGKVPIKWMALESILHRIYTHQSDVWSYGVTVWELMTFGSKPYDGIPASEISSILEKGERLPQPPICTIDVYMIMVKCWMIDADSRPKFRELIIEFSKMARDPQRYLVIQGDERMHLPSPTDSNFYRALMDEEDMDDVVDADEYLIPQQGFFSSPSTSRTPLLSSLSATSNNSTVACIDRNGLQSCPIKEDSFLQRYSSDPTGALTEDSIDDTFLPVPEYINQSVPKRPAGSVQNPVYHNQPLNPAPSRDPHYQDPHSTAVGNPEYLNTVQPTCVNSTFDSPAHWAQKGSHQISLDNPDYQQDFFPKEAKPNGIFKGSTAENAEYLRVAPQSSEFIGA
Protocol Summary: EGFRvIII phosphorylation in 293-EGFRvIII cells (western blot)
Format: cell-based
Parameters: expressed in transfected cells
Condition Context: 6 hours, read-out: IC50 on EGFRvIII phosphorylation (pEGFRvIII1068)
Readout Label: IC50 (nM)
Field format: number, assumed nM, no unit text.

Recorded result, C=CC(=O)Nc1cc(Nc2nccc(-n3ccc4cccnc43)n2)c(OC)cc1N(C)CCN(C)C [Compound 1] , IC50: 190

---

Here's what we have: pKd numbers for PDGFRA (Homo sapiens).
On this scale, pKd is minus log10 of a concentration expressed in M (mol/L).

Recorded result, C=CC(=O)Nc1cc(Nc2nccc(-c3cn(C)c4ccccc34)n2)c(OC)cc1N(C)CCN(C)C [Osimertinib, reference compound] , pKd: 6.13

Recorded result, `C=CC(=O)Nc1cc(Nc2nccc(-n3ccc4cccnc43)n2)c(OC)cc1N(C)CCN(C)C` , pKd: 5.82

---

Protocol Summary: Oral dog 4-week toxicity study with toxicokinetics
Format: in vivo, beagle dogs
Condition Context: female, beagle, in vivo; dog Day 28 mean, 30 mg/kg Compound 1 PO, F; Compound 2 as metabolite
Readout Label: Cmax (ng/mL)
Field format: number, assumed ng/mL, no unit text.

- C=CC(=O)Nc1cc(Nc2nccc(-n3ccc4cccnc43)n2)c(OC)cc1N(C)CCNC [Compound 2]: 161

Recorded result, C=CC(=O)Nc1cc(Nc2nccc(-n3ccc4cccnc43)n2)c(OC)cc1N(C)CCN(C)C [Compound 1] , Cmax: 508

---

Protocol Summary: Brain and plasma exposure after 5 hour intravenous infusion
Type: in vivo, Sprague Dawley rats
Condition Context: male, Sprague Dawley, rat, plasma, intravenous, 3 mg/kg, 3 mg/kg IV infusion over 5 h, 3 h, mean n=6; Compound 2 as metabolite
Overview of reported concentration at 3 h across a group of compounds:
Field format: number, assumed µg/mL, no unit text.

- C=CC(=O)Nc1cc(Nc2nccc(-n3ccc4cccnc43)n2)c(OC)cc1N(C)CCN(C)C: 0.0999

Let us move to another entry and its concentration at 3 h.
Recorded result, `C=CC(=O)Nc1cc(Nc2nccc(-n3ccc4cccnc43)n2)c(OC)cc1N(C)CCNC` , concentration at 3 h: 0.0123
